readout_type: glass transition temperature

compound="*c1ccc(-c2ccc(-c3nc4cc(Oc5ccc(NC(=O)c6ccc7c(c6)C(=O)N(c6ccc(C(c8ccc(N9C(=O)c%10ccc(C(=O)Nc%11ccc(Oc%12ccc%13nc(-c%14ccccc%14)c(*)nc%13c%12)cc%11)cc%10C9=O)cc8)(C(F)(F)F)C(F)(F)F)cc6)C7=O)cc5)ccc4nc3-c3ccccc3)cc2)cc1 (repeat unit)" readout_type="glass transition temperature" value_measured="290.00 °C"
compound="*c1ccc(-c2ccc(-n3c(-c4ccc(Oc5ccc(C(=O)c6ccc(Oc7ccc(C(=O)c8ccc(Oc9ccc(-c%10nc%11ccccc%11n%10*)cc9)cc8)cc7)cc6)cc5)cc4)nc4ccccc43)cc2)cc1 (repeat unit)" readout_type="glass transition temperature" value_measured="243.00 °C"
compound="*Oc1ccc(/C(C)=N/c2ccc(/N=C(\\C)c3ccc(Oc4ccc(C(C)(C)c5ccc(*)cc5)cc4)cc3)cc2)cc1 (repeat unit)" readout_type="glass transition temperature" value_measured="161.00 °C"
compound="*Oc1ccc(Oc2cccc(*)n2)c(C)c1 (repeat unit)" readout_type="glass transition temperature" value_measured="89.00 °C"
compound="*Oc1ccc(CC(NC(=O)CCc2ccc(OC(*)=O)cc2)C(=O)OCCCC)cc1 (repeat unit)" readout_type="glass transition temperature" value_measured="67.00 °C"

###

Measured glass transition temperature accompanies every entry in the list below.
readout_type: glass transition temperature (°C)

compound="*C(=O)c1ccc2c(c1)C(=O)N(c1ccc(Oc3cccc(N4C(=O)c5ccc(*)cc5C4=O)c3)cc1)C2=O (repeat unit)" readout_type="glass transition temperature" value_measured=252.00
compound="*Oc1cccc2c1C(=O)N(c1cccc(C(=O)c3cccc(N4C(=O)c5cccc(*)c5C4=O)c3)c1)C2=O (repeat unit)" readout_type="glass transition temperature" value_measured=234.00
compound="*Oc1cccc(C(C)(C)c2ccc(Oc3cccc4c3C(=O)N(c3ccc(Oc5cccc(Oc6ccc(N7C(=O)c8cccc(*)c8C7=O)cc6)c5)cc3)C4=O)cc2)c1 (repeat unit)" readout_type="glass transition temperature" value_measured=202.00

###

Measured glass transition temperature accompanies every entry in the list below.
readout_type: glass transition temperature (°C)

molecule="*c1cc(C)c(/N=C/c2ccc(OCc3ccccc3COc3ccc(/C=N/c4cc(C)c(N5C(=O)c6ccc7c8ccc9c%10c(ccc(c%11ccc(c6c7%11)C5=O)c%108)C(=O)N(*)C9=O)cc4C)cc3OC)c(OC)c2)cc1C (repeat unit)" readout_type="glass transition temperature" value_unit=°C value_measured=143.00
molecule="*c1cccc(-c2cc(C(=O)Nc3ccc(OC(=O)c4cc(OCCCCCCCCCCCC)c(OCCCCCCCCCCCC)c(OCCCCCCCCCCCC)c4)cc3)cc(-c3cccc(N4C(=O)CC(C5C=C(C)C6C(=O)N(*)C(=O)C6C5)C4=O)c3)c2)c1 (repeat unit)" readout_type="glass transition temperature" value_unit=°C value_measured=270.00
molecule="*O[Si](*)(C)CCCOc1ccc(C(=O)Oc2ccc(-c3ccc(OC(=O)c4cc(OCC(C)CC)c(OCC(C)CC)c(OCC(C)CC)c4)cc3)cc2)cc1 (repeat unit)" readout_type="glass transition temperature" value_unit=°C value_measured=60.00
molecule="*CC(*)(C)C(=O)OCCCCCCOc1ccc(C(=O)Oc2ccc(OC)cc2)cc1 (repeat unit)" readout_type="glass transition temperature" value_unit=°C value_measured=46.00
molecule="*CCCCCCCCCCCCOc1ccc(/C=N/N=C/c2ccc(O*)cc2O)c(O)c1 (repeat unit)" readout_type="glass transition temperature" value_unit=°C value_measured=89.00
molecule="*CC(*)(C)C(=O)OCCCCCCCCCCCOc1ccc2cc(C(=O)Oc3ccccc3)ccc2c1 (repeat unit)" readout_type="glass transition temperature" value_unit=°C value_measured=10.00
molecule="*C(=O)c1ccc(Oc2ccc(C(C)(C)c3ccc(Oc4ccc(*)s4)cc3)cc2)s1 (repeat unit)" readout_type="glass transition temperature" value_unit=°C value_measured=124.00
molecule="*c1ccc(Oc2ccc(C(C)(C)c3ccc(Oc4ccc(-c5nnc(*)c6c(-c7ccccc7)c(-c7ccc8ccccc8c7)c(-c7ccc8ccccc8c7)c(-c7ccccc7)c56)cc4)cc3)cc2)cc1 (repeat unit)" readout_type="glass transition temperature" value_unit=°C value_measured=290.00
molecule="*CCCP(C)(=O)CCCNC(=O)CCCCC(=O)N* (repeat unit)" readout_type="glass transition temperature" value_unit=°C value_measured=33.00
molecule="*CCCCCCCCCCCC(=O)N* (repeat unit)" readout_type="glass transition temperature" value_unit=°C value_measured=38.4
molecule="*c1ccc(Oc2ccc(C(=O)c3ccc(Oc4ccc(C(=O)c5ccc(Oc6ccc(-c7cc(*)n(-c8ccccc8)n7)cc6)cc5)cc4)cc3)cc2)cc1 (repeat unit)" readout_type="glass transition temperature" value_unit=°C value_measured=190.00
molecule="*CCCN(*)C(=O)c1ccccc1 (repeat unit)" readout_type="glass transition temperature" value_unit=°C value_measured=72.00
molecule="*C(F)(F)C1(*)OC(F)(C(F)(F)F)C(F)(C(F)(F)F)O1 (repeat unit)" readout_type="glass transition temperature" value_unit=°C value_measured=165.00
molecule="*=Nc1cccc(S(=O)(=O)c2cccc(/N=C3/OC(=O)c4ccc(Oc5ccc6c(c5)C(=O)OC6=*)cc43)c2)c1 (repeat unit)" readout_type="glass transition temperature" value_unit=°C value_measured=190.00

###

Measured glass transition temperature accompanies every entry in the list below.
readout_type: glass transition temperature (°C)

compound="*C(=O)Nc1cccc2cccc(N3C(=O)CC(N4C(=O)c5ccc(*)cc5C4=O)C3=O)c12 (repeat unit)" value_measured=193.00
compound="*c1ccc2oc(-c3ccc(C(c4ccc(-c5nc6cc(C(*)(c7ccccc7)C(F)(F)F)ccc6o5)cc4)(C(F)(F)F)C(F)(F)F)cc3)nc2c1 (repeat unit)" value_measured=334.00
compound="*C1=C(c2ccc(-c3ccc4c(c3)C(CCCCCC)(CCCCCC)c3cc(-c5ccc(*)cc5)ccc3-4)cc2)C(=O)N(CCCCCCCCCCCC)C1=O (repeat unit)" value_measured=100.00
compound="*CCCCCN1C(=O)c2ccc(C(c3ccc4c(c3)C(=O)N(*)C4=O)(C(F)(F)F)C(F)(F)F)cc2C1=O (repeat unit)" value_measured=180.00

###

Measured glass transition temperature accompanies every entry in the list below.
readout_type: glass transition temperature (°C)

compound="*c1ccc(OC(=O)c2ccc(C(=O)Oc3ccc(-c4nc5ccccc5nc4*)cc3)cc2)cc1 (repeat unit)" value_unit=°C value_measured=232.00
compound="*OC(F)(F)COC(=O)c1cccc(C(F)(F)C(F)(F)C(F)(F)c2cccc(C(=O)OCC(*)(F)F)c2)c1 (repeat unit)" value_unit=°C value_measured=30.00
compound="*CC(C)(CC)CO* (repeat unit)" value_unit=°C value_measured=-47.00
compound="*Oc1ccc(C2(c3ccc(OC(*)=O)c(C)c3)CC3CCC2C3)cc1C (repeat unit)" value_unit=°C value_measured=161.00
compound="*CC(=O)OC(=O)COc1ccc(C(C)(C)c2ccc(O*)cc2)cc1 (repeat unit)" value_unit=°C value_measured=105.00
compound="*CC(*)C(=O)Nc1ccc2c(c1)C(=O)c1ccccc1C2=O (repeat unit)" value_unit=°C value_measured=128.00
compound="*c1ccc(Oc2ccc(S(=O)(=O)c3ccc(Oc4ccc(-c5nc(-c6ccccn6)nnc5*)cc4)cc3)cc2)cc1 (repeat unit)" value_unit=°C value_measured=265.00
compound="*CC(O)COc1ccc(C(C)(C)c2ccc(OCC(O)COc3cccc(O*)c3)cc2)cc1 (repeat unit)" value_unit=°C value_measured=83.00

###

Measured glass transition temperature accompanies every entry in the list below.
readout_type: glass transition temperature

compound="*c1ccc(Oc2ccc(C(=O)c3ccc(Oc4ccc(-c5c6c(c(*)c7ccccc57)C(=O)N(c5ccccc5-c5ccccc5)C6=O)cc4)cc3)cc2)cc1 (repeat unit)" readout_type="glass transition temperature" value_measured="245.00 °C"
compound="*CC(*)OC(=O)C1(F)C(F)(F)C(F)(F)C(F)(F)C(F)(F)C1(F)F (repeat unit)" readout_type="glass transition temperature" value_measured="54.00 °C"
compound="*=NP(=NP(=NC(=*)Oc1ccc(Br)cc1)(Oc1ccc(Br)cc1)Oc1ccc(Br)cc1)(Oc1ccc(Br)cc1)Oc1ccc(Br)cc1 (repeat unit)" readout_type="glass transition temperature" value_measured="45.00 °C"

###

Output yes (1) for glass transition temperature not less than 200 °C; output no (0) otherwise.

compound="*CC(*)(C)C(=O)Oc1cccc(C)c1C (repeat unit)" qualitative_label="no (0)"
compound="*C(=O)Nc1ccc(Oc2ccc(NC(=O)c3ccc4c(c3)C(=O)N(c3ccc(Oc5ccc(N6C(=O)c7ccc(*)cc7C6=O)cc5-c5ccccc5)c(-c5ccccc5)c3)C4=O)cc2-c2ccccc2)c(-c2ccccc2)c1 (repeat unit)" qualitative_label="yes (1)"
compound="*CCCNC(=O)Cc1ccc(C(=O)N*)cc1 (repeat unit)" qualitative_label="no (0)"
compound="*CC(*)(C)C(=O)OCCCCCCN(C)c1ccc(N(C)C)cc1 (repeat unit)" qualitative_label="no (0)"
compound="*CCC/C=C(/*)c1ccccc1 (repeat unit)" qualitative_label="no (0)"
compound="*c1ccc(Oc2ccc(NC(=O)c3ccc(C(=O)Nc4ccc(Oc5ccc(-c6nnc(*)o6)cc5)cc4)c(Oc4ccccc4)c3)cc2)cc1 (repeat unit)" qualitative_label="yes (1)"
compound="*OC1CCC(OC(=O)OCCCCCCCOC(*)=O)CC1 (repeat unit)" qualitative_label="no (0)"
